biological target: human FXR (NR1H4) (Homo sapiens, UniProt Q96RI1); construct: host or cells: CHO (Chinese hamster ovary) reporter cells; test: Human FXR (NR1H4) Assay: Gal4 promoter driven luciferase reporter transactivation in CHO cells (Indigo Bioscience kit IB00601); type: cell-based; conditions: CHO; read-out: Efficacy (%); for Efficacy (%): efficacy normalized to CDCA set as 100%
The following compounds are listed with their measured Emax values.
Returns: string containing the numeric result and its unit.

// known answers, use as guide
COMPOUND: CN(C)S(=O)(=O)NC(=O)c1ccc2nc(N3C4CCC3CC(NCc3c(-c5c(Cl)cccc5Cl)noc3C3CC3)C4)oc2c1 (centres unmarked) [Example 301]
Emax: 63%

COMPOUND: CN(c1nc2ccc(C(=O)O)cc2s1)C1CCC(OCc2c(-c3c(Cl)cccc3Cl)noc2C2CC2)CC1 (centres unmarked) [Example 170]
Emax: 105%

COMPOUND: O=C(O)c1cc(F)c2nc(N3C4CCC3CC(NCc3c(-c5ccccc5C(F)(F)F)noc3C3CC3)C4)sc2c1 (centres unmarked) [Example 1408]
Emax: 103%

Challenge: Would you kindly share the measured Emax for COC(=O)c1cc(OC(C)C)c2nc(N3CCC(NCc4c(-c5c(Cl)cccc5Cl)noc4C4CC4)CC3)sc2c1 [Example 200-3] ?
Response given: 35%

Challenge: Likewise for O=C(O)c1ccc2nc(N3[C@@H]4CC[C@H]3C[C@H](NCc3c(-c5c(Cl)cccc5Cl)noc3C3CC3)C4)sc2c1 [Example 178] ?
Response given: 108%

Challenge: Same again, this time with CC1(S(=O)(=O)NC(=O)c2ccc3nc(N4C5CCC4CC(NCc4c(-c6ccccc6C(F)(F)F)noc4C4CC4)C5)sc3c2)CC1 (centres unmarked) [Example 1420]
Response given: 91%

Challenge: Query COC(=O)c1ccc2nc(N3C4CCC3CC(NCc3c(-c5c(Cl)cccc5Cl)noc3C3CC3)C4)sc2c1Br (centres unmarked) [Example 200-21] next
Response given: 58%

Challenge: # repeat for O=C(O)c1cc2sc(N3C4CCC3CC(NCc3c(-c5c(Cl)cccc5Cl)noc3C3CC3)C4)nc2cc1F (centres unmarked) [Example 200-16]
Response given: 109%

Challenge: # iterate: CCOC(=O)c1ccc2nc(N(C)C3CCC(OCc4c(-c5c(Cl)cccc5Cl)noc4C4CC4)CC3)sc2c1 (centres unmarked) [Example 169]
Response given: 38%

Challenge: Subsequent entry: CC1(S(=O)(=O)NC(=O)c2ccc3nc(N4C5CCC4CC(NCc4c(-c6ccccc6C6CC6)noc4C4CC4)C5)sc3c2)CC1 (centres unmarked) [Example 1422]
Response given: 94%

Challenge: Now consider CC(C)(C)OC(=O)CNC(=O)c1cc(F)c2nc(N3C4CCC3CC(NCc3c(-c5c(Cl)cccc5Cl)noc3C3CC3)C4)sc2c1 (centres unmarked) [Example 95] .
Response given: 128%

Challenge: Item: O=C(NS(=O)(=O)C1CC1)c1ccc(N2C3CCC2CC(NCc2c(-c4ccccc4OC(F)(F)F)noc2C2CC2)C3)nc1 (centres unmarked) [Example 900-13]
Response given: 59.5%

Challenge: Would you kindly repeat that for O=C(O)c1ccc2nc(N3CCC(NCc4c(-c5c(Cl)cccc5Cl)noc4C4CC4)CC3)sc2c1 [Example 174] ?
Response given: 132%

Challenge: Another compound to look at: CC1(S(=O)(=O)NC(=O)c2ccc3nc(N4C5CCC4CC(NCc4c(-c6c(F)cccc6F)noc4C4CC4)C5)sc3c2)CC1 (centres unmarked) [Example 1421]
Response given: 101%

* * *

Target: human FXR (NR1H4) (Homo sapiens, UniProt Q96RI1)
Sequence (Q96RI1 1-486): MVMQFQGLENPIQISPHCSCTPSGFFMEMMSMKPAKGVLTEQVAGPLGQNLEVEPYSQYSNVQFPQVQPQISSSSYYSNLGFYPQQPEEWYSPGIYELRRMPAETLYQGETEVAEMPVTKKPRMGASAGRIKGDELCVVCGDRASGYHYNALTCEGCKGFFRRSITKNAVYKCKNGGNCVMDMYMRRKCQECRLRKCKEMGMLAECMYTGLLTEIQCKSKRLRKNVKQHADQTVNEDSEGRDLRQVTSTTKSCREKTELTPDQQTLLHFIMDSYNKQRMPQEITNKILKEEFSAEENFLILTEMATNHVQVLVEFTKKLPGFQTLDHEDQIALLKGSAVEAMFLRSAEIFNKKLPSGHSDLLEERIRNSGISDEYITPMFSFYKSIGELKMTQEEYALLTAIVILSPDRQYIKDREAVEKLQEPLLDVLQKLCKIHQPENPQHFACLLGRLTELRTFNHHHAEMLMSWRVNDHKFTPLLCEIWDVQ
Assay: Human FXR (NR1H4) Assay: Gal4 promoter driven luciferase reporter transactivation in CHO cells (Indigo Bioscience kit IB00601)
Conditions: Human FXR (NR1H4) reporter assay, potency ranges
ASSAY METRIC: EC50

COMPOUND: COc1cc2nc(N3C4CCC3CC(NCc3c(-c5c(Cl)cccc5Cl)noc3C3CC3)C4)sc2cc1C(=O)O (stereo not drawn)
EC50: < 1 nM

Challenge: Record request: EC50 value, item O=C(NS(=O)(=O)C1CC1)c1ccc2nc(N3C4CCC3CC(NCc3c(-c5c(F)cccc5F)noc3C3CC3)C4)sc2c1 (stereo not drawn)
Response given: 1 to 100 nM

Challenge: How about O=C(O)CNC(=O)c1cc(F)c2nc(N3C4CCC3CC(NCc3c(-c5c(Cl)cccc5Cl)noc3C3CC3)C4)sc2c1 (stereo not drawn) ?
Response given: 1 to 100 nM

Challenge: Check CC(C)Oc1cc(C(=O)O)cc2sc(N3C4CCC3CC(NCc3c(-c5ccccc5OC(F)(F)F)noc3C3CC3)C4)nc12 (stereo not drawn) too.
Response given: < 1 nM

Challenge: Also, CC1(S(=O)(=O)NC(=O)c2cc(C3CC3)c3nc(N4C5CCC4CC(NCc4c(-c6ccccc6OC(F)(F)F)noc4C4CC4)C5)sc3c2)CC1 (stereo not drawn) please.
Response given: < 1 nM

Challenge: And `CC(C)Oc1cc(C(=O)NS(=O)(=O)N2CCCC2)cc2sc(N3CCC(NCc4c(-c5c(Cl)cccc5Cl)noc4C4CC4)CC3)nc12` ?
Response given: 1 to 100 nM

* * *

Below, each of the compounds is paired with its reported pEC50 value.
molecular target: human FXR (NR1H4) (Homo sapiens, UniProt Q96RI1); assay: Human FXR (NR1H4) Assay: Gal4 promoter driven luciferase reporter transactivation in CHO cells (Indigo Bioscience kit IB00601); conditions: Human FXR (NR1H4) reporter assay, potency ranges
pEC50: −log10 of the molar value.

// worked examples, pEC50 included
COMPOUND: O=C(O)c1ccc2nc(N3CCC(NCc4c(-c5c(Cl)cccc5Cl)noc4C4CC4)CC3)sc2c1
pEC50: 7.00 to 9.00
//
COMPOUND: O=C(NS(=O)(=O)C1CC1)c1ccc2nc(N3C4CCC3CC(NCc3c(-c5ccccc5C(F)(F)F)noc3C3CC3)C4)sc2c1 (centres unmarked)
pEC50: 7.00 to 9.00
//
COMPOUND: O=C(NCCS(=O)(=O)O)c1cc(F)c2nc(N3C4CCC3CC(NCc3c(-c5c(Cl)cccc5Cl)noc3C3CC3)C4)sc2c1 (centres unmarked)
pEC50: 7.00 to 9.00
//
COMPOUND: O=C(NS(=O)(=O)C1CC1)c1cc(F)c2nc(N3CCC(NCc4c(-c5ccccc5OC(F)(F)F)noc4C4CC4)CC3)sc2c1
pEC50: 6.00 to 7.00
//
COMPOUND: CC1(S(=O)(=O)NC(=O)c2cc(F)c(N3C4CCC3CC(NCc3c(-c5ccccc5OC(F)(F)F)noc3C3CC3)C4)c(F)c2)CC1 (centres unmarked)
pEC50: 7.00 to 9.00
//
COMPOUND: CCOC(=O)c1ccc2nc(N3CCC(NCc4c(-c5c(Cl)cccc5Cl)noc4C4CC4)CC3)sc2c1
pEC50: < 6.00

Challenge: Which pEC50 is reported with human FXR (NR1H4) (Homo sapiens, UniProt Q96RI1) for this entry: `CCOC(=O)c1ccc2nc(NC3CCN(Cc4c(-c5c(Cl)cccc5Cl)noc4C4CC4)CC3)sc2c1` ?
Response given: < 6.00

Challenge: Now consider CC1(S(=O)(=O)NC(=O)c2ccc3nc(N4C5CCC4CC(NCc4c(-c6c(F)cccc6F)noc4C4CC4)C5)sc3c2)CC1 (centres unmarked) and answer again.
Response given: 7.00 to 9.00

* * *

biological target: human FXR (NR1H4) (Homo sapiens); construct: host or cells: CHO (Chinese hamster ovary) reporter cells; test: Human FXR (NR1H4) Assay: Gal4 promoter driven luciferase reporter transactivation in CHO cells (Indigo Bioscience kit IB00601); assay type: cell-based; conditions: CHO; read-out: Efficacy (%)
ASSAY METRIC: Emax

Some solved cases for reference:
COMPOUND: COC(=O)c1cc(OC(C)C)c2nc(N3C4CCC3CC(NCc3c(-c5ccccc5OC(F)(F)F)noc3C3CC3)C4)sc2c1 (stereo not shown) [Example 413]
READOUT VALUE: 118%
//
COMPOUND: O=C(NS(=O)(=O)C1CC1)c1ccc2nc(N3C4CCC3CC(NCc3c(-c5ccccc5C(F)(F)F)noc3C3CC3)C4)oc2c1 (stereo not shown) [Example 1424]
READOUT VALUE: 148%
//
COMPOUND: CCOc1cc(C(=O)NS(=O)(=O)N2CCCCC2)cc2sc(N3C4CCC3CC(NCc3c(-c5c(Cl)cccc5Cl)noc3C3CC3)C4)nc12 (stereo not shown) [Example 400-16]
READOUT VALUE: 87.3%
//
COMPOUND: CCOC(=O)c1ccc2nc(N3CCC(NCc4c(-c5c(Cl)cccc5Cl)noc4C4CC4)CC3)sc2c1 [Example 173]
READOUT VALUE: 116%
//
COMPOUND: CC(C)Oc1cc(C(=O)NS(=O)(=O)C2CC2)cc2sc(N3C4CCC3CC(NCc3c(-c5ccccc5C(F)(F)F)noc3C3CC3)C4)nc12 (stereo not shown) [Example 1415]
READOUT VALUE: 106%
//
COMPOUND: CCOc1cc(C(=O)O)cc2sc(N3C4CCC3CC(NCc3c(-c5c(Cl)cccc5Cl)noc3C3CC3)C4)nc12 (stereo not shown) [Example 200-10]
READOUT VALUE: 92.5%
//
COMPOUND: CC(C)(C)c1ccc(S(=O)(=O)NC(=O)c2ccc3nc(N4C5CCC4CC(NCc4c(-c6c(Cl)cccc6Cl)noc4C4CC4)C5)sc3c2)cc1 (stereo not shown) [Example 284]
READOUT VALUE: 54%
//
COMPOUND: COC(=O)c1cc(C2CC2)c2nc(N3C4CCC3CC(NCc3c(-c5ccccc5OC(F)(F)F)noc3C3CC3)C4)sc2c1 (stereo not shown) [Example 643]
READOUT VALUE: 52%

Challenge: Can you share its Emax? I mean this compound: COC(=O)c1cc2sc(N3C4CCC3CC(NCc3c(-c5c(Cl)cccc5Cl)noc3C3CC3)C4)nc2c2ccccc12 (stereo not shown) [Example 200-27]
Response given: 28.3%

Challenge: // query: O=C(O)c1ccc2nc(N3C4CCC3CN(Cc3c(-c5c(Cl)cccc5Cl)noc3C3CC3)C4)sc2c1 [Example 176]
Response given: 228%
